target: Delta-type opioid receptor (Homo sapiens, UniProt P41143); experiment: Displacement of [3H]-[…] from human delta opioid receptor expressed in CHO cells incubated for […] by competitive radioligand binding assay
Sequence (P41143 whole entry): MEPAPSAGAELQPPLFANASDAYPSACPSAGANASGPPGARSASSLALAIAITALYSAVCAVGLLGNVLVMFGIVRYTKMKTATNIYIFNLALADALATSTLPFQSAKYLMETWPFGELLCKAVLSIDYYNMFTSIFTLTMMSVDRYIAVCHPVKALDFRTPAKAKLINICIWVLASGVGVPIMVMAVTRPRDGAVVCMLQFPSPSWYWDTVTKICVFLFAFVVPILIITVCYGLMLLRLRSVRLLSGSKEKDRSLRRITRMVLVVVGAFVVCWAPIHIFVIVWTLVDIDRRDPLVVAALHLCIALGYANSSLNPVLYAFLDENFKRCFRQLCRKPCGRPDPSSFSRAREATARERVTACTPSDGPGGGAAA
Listed here: items and their measured Ki.

| Smiles Notation | Ki |
| --- | --- |
| Cl.O=C(N[C@H]1CC[C@@]2(O)[C@H]3Cc4ccc(O)c5c4[C@@]2(CCN3CC2CC2)[C@H]1O5)c1cccc2occc12 | 16.9 nM |
| Cl.O=C(N[C@@H]1CC[C@@]2(O)[C@H]3Cc4ccc(O)c5c4[C@@]2(CCN3CC2CC2)[C@H]1O5)c1csc2ccccc12 | 18.6 nM |
| Cl.O=C(N[C@@H]1CC[C@@]2(O)[C@H]3Cc4ccc(O)c5c4[C@@]2(CCN3CC2CC2)[C@H]1O5)c1cc2ccccc2s1 | 1.39 nM |
| Cl.O=C(N[C@H]1CC[C@@]2(O)[C@H]3Cc4ccc(O)c5c4[C@@]2(CCN3CC2CC2)[C@H]1O5)c1ccc2ccoc2c1 | 30.7 nM |
| Cl.O=C(N[C@H]1CC[C@@]2(O)[C@H]3Cc4ccc(O)c5c4[C@@]2(CCN3CC2CC2)[C@H]1O5)c1ccc2occc2c1 | 29 nM |
| Cl.O=C(N[C@H]1CC[C@@]2(O)[C@H]3Cc4ccc(O)c5c4[C@@]2(CCN3CC2CC2)[C@H]1O5)c1cccc2sccc12 | 6.85 nM |

* * *

experiment: Selectivity index, ratio of Ki for mouse kappa opioid receptor expressed in CHO cells to Ki for mouse mu opioid receptor expressed in CHO cells

| Smiles Notation | Ratio Ki |
| --- | --- |
| Cl.O=C(N[C@H]1CC[C@@]2(O)[C@H]3Cc4ccc(O)c5c4[C@@]2(CCN3CC2CC2)[C@H]1O5)c1cc2ccccc2o1 | 3.8 |
| Cl.O=C(N[C@H]1CC[C@@]2(O)[C@H]3Cc4ccc(O)c5c4[C@@]2(CCN3CC2CC2)[C@H]1O5)c1cc2ccccc2s1 | 4.5 |
| Cl.O=C(N[C@H]1CC[C@@]2(O)[C@H]3Cc4ccc(O)c5c4[C@@]2(CCN3CC2CC2)[C@H]1O5)c1cccc2ccsc12 | 8.5 |
| Cl.O=C(N[C@H]1CC[C@@]2(O)[C@H]3Cc4ccc(O)c5c4[C@@]2(CCN3CC2CC2)[C@H]1O5)c1csc2ccccc12 | 11.9 |

* * *

Listed here: items and their measured pKi.
target: Delta-type opioid receptor (Homo sapiens, UniProt P41143); assay: Displacement of [3H]-[…] from human delta opioid receptor expressed in CHO cells incubated for […] by competitive radioligand binding assay
pKi: −log10 of the molar value.

| Smiles Notation | pKi |
| --- | --- |
| Cl.O=C(N[C@H]1CC[C@@]2(O)[C@H]3Cc4ccc(O)c5c4[C@@]2(CCN3CC2CC2)[C@H]1O5)c1cccc2ccsc12 | 8.08 |
| Cl.O=C(N[C@H]1CC[C@@]2(O)[C@H]3Cc4ccc(O)c5c4[C@@]2(CCN3CC2CC2)[C@H]1O5)c1cc2ccccc2s1 | 7.84 |
| Cl.O=C(N[C@@H]1CC[C@@]2(O)[C@H]3Cc4ccc(O)c5c4[C@@]2(CCN3CC2CC2)[C@H]1O5)c1cccc2ccsc12 | 7.41 |
| Cl.O=C(N[C@H]1CC[C@@]2(O)[C@H]3Cc4ccc(O)c5c4[C@@]2(CCN3CC2CC2)[C@H]1O5)c1cc2ccccc2o1 | 7.44 |
| Cl.O=C(N[C@H]1CC[C@@]2(O)[C@H]3Cc4ccc(O)c5c4[C@@]2(CCN3CC2CC2)[C@H]1O5)c1ccc2ccsc2c1 | 7.65 |
| Cl.O=C(N[C@@H]1CC[C@@]2(O)[C@H]3Cc4ccc(O)c5c4[C@@]2(CCN3CC2CC2)[C@H]1O5)c1cccc2sccc12 | 7.62 |
| Cl.O=C(N[C@@H]1CC[C@@]2(O)[C@H]3Cc4ccc(O)c5c4[C@@]2(CCN3CC2CC2)[C@H]1O5)c1ccc2sccc2c1 | 8.87 |
| Cl.O=C(N[C@@H]1CC[C@@]2(O)[C@H]3Cc4ccc(O)c5c4[C@@]2(CCN3CC2CC2)[C@H]1O5)c1cccc2occc12 | 7.15 |
| Cl.O=C(N[C@H]1CC[C@@]2(O)[C@H]3Cc4ccc(O)c5c4[C@@]2(CCN3CC2CC2)[C@H]1O5)c1coc2ccccc12 | 7.77 |
| Cl.O=C(N[C@@H]1CC[C@@]2(O)[C@H]3Cc4ccc(O)c5c4[C@@]2(CCN3CC2CC2)[C@H]1O5)c1ccc2occc2c1 | 8.27 |
| Cl.O=C(N[C@H]1CC[C@@]2(O)[C@H]3Cc4ccc(O)c5c4[C@@]2(CCN3CC2CC2)[C@H]1O5)c1ccc2sccc2c1 | 7.93 |
| Cl.O=C(N[C@H]1CC[C@@]2(O)[C@H]3Cc4ccc(O)c5c4[C@@]2(CCN3CC2CC2)[C@H]1O5)c1csc2ccccc12 | 8.04 |
| Cl.O=C(N[C@@H]1CC[C@@]2(O)[C@H]3Cc4ccc(O)c5c4[C@@]2(CCN3CC2CC2)[C@H]1O5)c1cc2ccccc2o1 | 8.71 |
